Provide the recorded IC50 for the entries that follow.
target-of-assay: Amine oxidase [flavin-containing] A (Homo sapiens, UniProt P21397)
Sequence (P21397 whole entry): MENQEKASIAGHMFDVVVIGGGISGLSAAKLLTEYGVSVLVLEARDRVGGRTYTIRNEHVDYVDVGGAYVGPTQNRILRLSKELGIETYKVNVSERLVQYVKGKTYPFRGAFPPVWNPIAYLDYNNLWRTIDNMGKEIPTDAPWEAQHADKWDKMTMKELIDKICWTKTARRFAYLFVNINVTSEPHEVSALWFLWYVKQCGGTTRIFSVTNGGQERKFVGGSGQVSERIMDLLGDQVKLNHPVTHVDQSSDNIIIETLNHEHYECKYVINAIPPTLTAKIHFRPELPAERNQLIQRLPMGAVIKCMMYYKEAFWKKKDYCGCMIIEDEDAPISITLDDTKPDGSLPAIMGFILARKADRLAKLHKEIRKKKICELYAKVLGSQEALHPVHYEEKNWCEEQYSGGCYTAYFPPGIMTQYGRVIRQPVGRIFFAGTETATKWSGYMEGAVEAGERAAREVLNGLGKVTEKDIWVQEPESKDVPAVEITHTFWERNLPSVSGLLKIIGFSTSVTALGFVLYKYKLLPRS
Give bare numbers, in nM.

Solved cases below.
Measured on Amine oxidase [flavin-containing] A (Homo sapiens, UniProt P21397), O=C1CCCc2ccc(OCc3ccccc3)cc21 has a documented IC50 of 443

Measured on Amine oxidase [flavin-containing] A (Homo sapiens, UniProt P21397), N#Cc1ccc(COc2ccc3c(c2)C(=O)CCC3)cc1 has a documented IC50 of 10

Measured on Amine oxidase [flavin-containing] A (Homo sapiens, UniProt P21397), O=C1CCCc2ccc(OCc3ccc(I)cc3)cc21 has a documented IC50 of 283

For every listed record, write down its IC50.
1. O=C1CCCc2ccc(OCCc3ccccc3)cc21
2. N#Cc1cccc(COc2ccc3c(c2)C(=O)CCC3)c1
3. Cc1ccc(COc2ccc3c(c2)C(=O)CCC3)cc1

Return:
1: 366; 2: 26; 3: 741

For every listed record, write down its IC50.
1. O=C1CCCc2ccc(OCc3ccc(F)cc3)cc21
2. O=C1CCCc2ccc(O)cc21 [7-Hydroxy-1-tetralone (5)]
3. O=C1CCCc2ccc(OCc3cccc(C(F)(F)F)c3)cc21

Return:
1: 12; 2: 39400; 3: 375

---

target-of-assay: Amine oxidase [flavin-containing] B (Homo sapiens)
Sequence (P27338 whole entry): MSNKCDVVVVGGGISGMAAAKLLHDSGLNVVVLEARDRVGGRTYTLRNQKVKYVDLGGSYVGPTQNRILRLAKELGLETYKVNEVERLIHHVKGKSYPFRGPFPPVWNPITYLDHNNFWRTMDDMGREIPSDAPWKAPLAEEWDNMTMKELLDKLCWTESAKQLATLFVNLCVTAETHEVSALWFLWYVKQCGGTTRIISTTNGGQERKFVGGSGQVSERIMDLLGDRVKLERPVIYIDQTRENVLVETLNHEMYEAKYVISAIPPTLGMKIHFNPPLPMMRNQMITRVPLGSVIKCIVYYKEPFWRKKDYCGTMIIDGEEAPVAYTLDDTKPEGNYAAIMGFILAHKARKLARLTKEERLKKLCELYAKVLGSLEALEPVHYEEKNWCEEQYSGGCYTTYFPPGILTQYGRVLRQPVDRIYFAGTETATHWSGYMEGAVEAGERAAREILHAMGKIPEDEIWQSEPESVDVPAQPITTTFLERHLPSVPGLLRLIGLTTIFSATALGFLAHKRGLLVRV
pIC50: −log10 of the molar value.
Kind request: treat 8 as inclusive, so pIC50 at 8 or higher is TRUE, anything lower is FALSE.

Enquiry: Answer whether pIC50 of O=C1CCCc2ccc(OCc3cccc(F)c3)cc21 is greater than or equal to 8.
Return: TRUE

Enquiry: Answer whether pIC50 of O=C1CCCc2ccc(O)cc21 [7-Hydroxy-1-tetralone (5)] is greater than or equal to 8.
Return: FALSE

Moving on to another compound below.
Enquiry: Answer whether pIC50 of N#Cc1ccc(COc2ccc3c(c2)C(=O)CCC3)cc1 is greater than or equal to 8.
Return: TRUE
